# target.or.system: AmGSTF (Alopecurus myosuroides, UniProt Q9ZS17)
# Construct: full length, synthetic gene, His-tagged (C-His vector), E. coli, Ni-IDA-Sepharose purified, homodimer
# Sequence (Q9ZS17 1-219): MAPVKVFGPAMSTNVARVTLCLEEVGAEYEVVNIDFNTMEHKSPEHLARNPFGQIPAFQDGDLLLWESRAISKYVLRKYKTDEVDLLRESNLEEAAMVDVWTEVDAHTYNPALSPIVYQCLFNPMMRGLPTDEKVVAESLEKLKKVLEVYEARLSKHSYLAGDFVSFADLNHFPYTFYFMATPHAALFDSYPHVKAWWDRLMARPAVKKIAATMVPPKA
# test.details: dose-response inhibition of GST activity
recorded.metric: IC50 (µM)
Write down the numeric answer in µM and omit the unit.

Looking up `CCCCOCN(C(=O)CCl)c1c(CC)cccc1CC` , I see its IC50 listed as 7.3
